- target-desc: Androgen receptor (Homo sapiens, UniProt P10275)
- Sequence (P10275 whole entry): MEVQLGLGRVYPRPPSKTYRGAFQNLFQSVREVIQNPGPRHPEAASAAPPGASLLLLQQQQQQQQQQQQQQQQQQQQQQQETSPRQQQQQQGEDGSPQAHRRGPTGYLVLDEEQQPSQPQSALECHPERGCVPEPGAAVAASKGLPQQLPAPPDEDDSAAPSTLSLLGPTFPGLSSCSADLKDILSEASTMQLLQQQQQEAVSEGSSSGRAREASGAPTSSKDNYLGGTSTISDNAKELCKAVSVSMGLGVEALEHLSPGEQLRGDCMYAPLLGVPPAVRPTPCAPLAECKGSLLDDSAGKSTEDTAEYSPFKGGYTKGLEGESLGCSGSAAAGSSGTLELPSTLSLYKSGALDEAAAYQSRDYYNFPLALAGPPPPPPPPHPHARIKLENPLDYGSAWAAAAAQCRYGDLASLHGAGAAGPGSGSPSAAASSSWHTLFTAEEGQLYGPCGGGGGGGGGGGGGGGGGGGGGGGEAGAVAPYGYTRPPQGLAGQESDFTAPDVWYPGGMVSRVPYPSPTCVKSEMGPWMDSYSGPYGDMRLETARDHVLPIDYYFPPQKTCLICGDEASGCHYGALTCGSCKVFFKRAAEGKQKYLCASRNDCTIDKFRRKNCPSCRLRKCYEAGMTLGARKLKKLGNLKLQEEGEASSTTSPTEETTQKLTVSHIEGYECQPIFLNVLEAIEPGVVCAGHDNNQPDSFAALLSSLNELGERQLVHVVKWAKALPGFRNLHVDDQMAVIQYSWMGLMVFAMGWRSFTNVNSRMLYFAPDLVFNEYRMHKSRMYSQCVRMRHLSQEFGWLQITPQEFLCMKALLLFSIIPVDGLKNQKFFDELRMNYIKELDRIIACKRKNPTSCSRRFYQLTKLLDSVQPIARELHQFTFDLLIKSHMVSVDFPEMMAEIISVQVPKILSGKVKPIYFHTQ
- protocol: Binding affinity against hAR androgen receptor expressed in COS cells
- Type: cell-based
pKi: −log10 of the molar value.
Listed here are compounds together with their documented pKi.
measured-quantity: pKi

test-smiles	measured-quantity	quantitative-result
Cn1c(=O)cc(C(F)(F)F)c2cc3c(cc21)NCC3	pKi	7.21
CC1(C)CCC[C@@H]2c3cc4c(C(F)(F)F)cc(O)nc4cc3N[C@@H]21	pKi	7.10
CN1CCc2cc3c(C(F)(F)F)cc(=O)n(C)c3cc21	pKi	6.78
CN1c2cc3c(cc2[C@H]2CCCC(C)(C)[C@H]21)c(C(F)(F)F)cc(=O)n3C	pKi	7.23

###

- target-desc: Glucocorticoid receptor (Homo sapiens)
- Sequence (P04150 whole entry): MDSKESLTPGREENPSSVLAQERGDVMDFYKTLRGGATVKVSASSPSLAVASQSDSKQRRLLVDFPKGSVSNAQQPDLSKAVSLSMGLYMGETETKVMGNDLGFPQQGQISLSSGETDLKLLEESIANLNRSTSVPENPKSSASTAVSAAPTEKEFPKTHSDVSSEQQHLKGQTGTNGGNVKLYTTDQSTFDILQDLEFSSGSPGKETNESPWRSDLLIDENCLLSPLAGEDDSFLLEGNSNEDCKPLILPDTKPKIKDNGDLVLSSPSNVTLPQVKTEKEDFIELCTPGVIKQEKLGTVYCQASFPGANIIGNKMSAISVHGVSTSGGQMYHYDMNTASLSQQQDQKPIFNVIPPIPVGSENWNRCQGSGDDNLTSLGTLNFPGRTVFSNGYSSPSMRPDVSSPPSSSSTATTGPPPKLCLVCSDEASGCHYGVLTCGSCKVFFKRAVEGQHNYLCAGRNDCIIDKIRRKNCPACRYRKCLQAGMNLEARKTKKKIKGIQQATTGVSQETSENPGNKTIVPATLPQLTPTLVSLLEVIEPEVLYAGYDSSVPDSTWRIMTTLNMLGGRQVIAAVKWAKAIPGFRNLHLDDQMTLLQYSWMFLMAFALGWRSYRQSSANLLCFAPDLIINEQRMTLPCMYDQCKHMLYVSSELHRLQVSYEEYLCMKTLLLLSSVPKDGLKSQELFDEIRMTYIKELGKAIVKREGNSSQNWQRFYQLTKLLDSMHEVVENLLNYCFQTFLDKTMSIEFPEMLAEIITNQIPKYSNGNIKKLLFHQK
- protocol: Antagonistic activity against Glucocorticoid receptor in co-transfected CV-1 cell
- Type: functional, cell-based
# Efficacy listing for each entry below

test-smiles	Efficacy
C[C@H]1CC[C@H]2Nc3cc4c(cc3[C@H]2C1)c(C(F)(F)F)cc(=O)n4C	< 20%
C[C@@H]1Cc2cc3c(C(F)(F)F)cc(O)nc3cc2N1	< 20%
CN1c2cc3c(cc2[C@H]2CCCC[C@H]21)c(C(F)(F)F)cc(=O)n3C	< 20%

###

Measured IC50 by item
- target-desc: UniProt P04150
- protocol: Antagonistic activity against Glucocorticoid receptor in co-transfected CV-1 cell
measured-quantity: IC50 (µM)

test-smiles	measured-quantity	comparison-operator	quantitative-result
C[C@@H]1Cc2cc3c(C(F)(F)F)cc(O)nc3cc2N1	IC50	>	10
Oc1cc(C(F)(F)F)c2cc3c(cc2n1)N[C@@H]1CCCC[C@H]31	IC50	=	5.8
CN1c2cc3c(cc2[C@H]2CCCC[C@H]21)c(C(F)(F)F)cc(=O)n3C	IC50	>	10
C[C@H]1CC[C@H]2Nc3cc4c(cc3[C@H]2C1)c(C(F)(F)F)cc(=O)n4C	IC50	>	10
CC1(C)CCC[C@]2(C)c3cc4c(C(F)(F)F)cc(O)nc4cc3N[C@H]12	IC50	=	1.4
C[C@]12CCCC[C@H]1Nc1cc3[nH]c(=O)cc(C(F)(F)F)c3cc12	IC50	=	2.1
Cn1c(=O)cc(C(F)(F)F)c2cc3c(cc21)N[C@@H]1CCCC[C@H]31	IC50	=	3
